Recorded values, source the RNAGym collection of RNA variant scans (doi:10.7554/elife.90254).

B1: LINE1-mini (parent)
chain: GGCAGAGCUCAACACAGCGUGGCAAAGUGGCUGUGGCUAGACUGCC

variants of: B1; assay: self-cleavage, relative activity (ratio to wild type); higher = more cleavage; in vitro, sequencing; the parent is a self-cleaving ribozyme
Outcome: TRUE for self-cleavage of at least 0.2; FALSE for anything lower.

Could you tell me if the measured self-cleavage of C15A G27C reaches 0.2 or more?
FALSE

Same question for C18U G36U please.
FALSE

Same question for C15A C18U please.
FALSE

Same question for C3A U34A please.
FALSE

Same question for A11C C37U please.
FALSE

Same question for A4U C13U please.
FALSE

Same question for A4C A26G please.
FALSE

Same question for C13G G33A please.
FALSE

Same question for A25U C31U please.
TRUE

Same question for A16C C23A please.
FALSE

Same question for G7U C31U please.
FALSE

Same question for G27A G29U please.
TRUE

Same question for C10U A12G please.
FALSE

Same question for C8A C18U please.
TRUE

Same question for U20G U43G please.
FALSE

Same question for A6U A14C please.
FALSE

Same question for U20G G44U please.
TRUE

Same question for U20A A26U please.
TRUE

Same question for C15G G40U please.
FALSE

Same question for G1A A25U please.
TRUE

Same question for C8U G22A please.
FALSE

Same question for C18U U32C please.
FALSE

Same question for C15U G19C please.
TRUE

Same question for G5U G19C please.
FALSE

Same question for A4G C10G please.
FALSE

Same question for A6G U43A please.
FALSE

Same question for A6U U38A please.
TRUE

Same question for A11C C23U please.
FALSE

Same question for A11C U20A please.
FALSE

Same question for A24C C37A please.
FALSE

Same question for G22A A25U please.
TRUE

Same question for G7U G17U please.
FALSE

Same question for C3A A41C please.
FALSE

Same question for G22C A26U please.
TRUE

Same question for G33C U34C please.
FALSE

Same question for G7C U28A please.
FALSE

Same question for G1C G7U please.
FALSE

Same question for A11U C13U please.
FALSE

Same question for A6G U38G please.
FALSE

Same question for A14C G29C please.
FALSE

Same question for A26G G33A please.
FALSE

Same question for G21C U38G please.
FALSE

Same question for C10U G36U please.
FALSE

Same question for G7C G44C please.
FALSE

Same question for A12C G19A please.
FALSE

Same question for G17A C18A please.
FALSE

Same question for C13U C45U please.
FALSE

Same question for G21A C31U please.
TRUE

Same question for A12U G19C please.
TRUE

Same question for A24G A26C please.
TRUE

Same question for A12G C45A please.
FALSE

Same question for G1A A14G please.
TRUE

Same question for G5A C8U please.
TRUE

Same question for G1U C45U please.
TRUE

Same question for U32C U38A please.
TRUE

Same question for A16C U38G please.
FALSE

Same question for C31A C45A please.
FALSE

Same question for A24C U32A please.
FALSE

Same question for A12U A16U please.
FALSE

Same question for C15G G36U please.
FALSE

Same question for C23G G44U please.
FALSE

Same question for G5U C31G please.
FALSE

Same question for C31G G40A please.
FALSE

Same question for A11U C42A please.
FALSE

Same question for A6C G44C please.
TRUE

Same question for A16C U20C please.
FALSE

Same question for G17A C31A please.
FALSE

Same question for A4U G21C please.
TRUE

Same question for U34G C46A please.
FALSE

Same question for A16C G21A please.
FALSE

Same question for G17C G40U please.
FALSE

Same question for C8U U28A please.
FALSE

Same question for G7A U34G please.
FALSE

Same question for U20G C37G please.
FALSE

Same question for G5C G40C please.
FALSE

Same question for G21U A39C please.
TRUE

Same question for G7U C13U please.
FALSE

Same question for G40A C45A please.
FALSE

Same question for G5U A24U please.
FALSE

Same question for G30U U43A please.
FALSE

Same question for U34G G40A please.
FALSE

Same question for A4G G27A please.
TRUE

Same question for C23G U38G please.
FALSE

Same question for C37A G40A please.
FALSE

Same question for G7U U9G please.
FALSE

Same question for C13U A25U please.
TRUE

Same question for G2A G44U please.
TRUE

Same question for C13A G21C please.
FALSE
